experiment: yeast display, Sf9 membrane polyspecificity reagent, FACS + sequencing; frameworks hold sequencing errors
PROPERTY_NAME: polyreactivity (PSR sort gate)

SEQUENCE_CONTENT: QVQLVESGGGLVQAGGSLRLSCAASGRTFYRYAMGWYRQAPGKERELVASITWSGGSTYYADSVKGRFTISRDNAKNTVYLQMNSLKPEDTAVYYCAAISAVTLRGYYYWGQGTQVTVSS
READOUT_VALUE: high polyreactivity

SEQUENCE_CONTENT: QVQLVESGGGLVQAGGSLRLSCAASGSIFGGYAMGSYRQAPGKERELVAAISSGGTTNYADSVKGRFTISRDNAKNTVYLQMNSLKPEDTAVYYCAREYGPTYQSVPVKFIQLDYWGQGTQVTVSS
READOUT_VALUE: low polyreactivity

SEQUENCE_CONTENT: QVQLVDSGGGLVQAGGSLRLSCAASGSIFGSNAMGWYRQAPGKERELVAAITWSDGSTYYADSVKGRFTISRDNAKNTVYLQMNSLKPEDTAVYYCATDYGYSWYDYWGQGTQVTVSS
READOUT_VALUE: low polyreactivity

SEQUENCE_CONTENT: QVQLVESGGGLVQAGGSLRLSCAASGRTFYGYAMGWYRQAPGKERELVASISRDGSTNYADSVKGRFTISRDNAKNTVYLQMNSLKPEDTAVYYCAADWVYYRYWPYVGYDYWGQGTQVTVSS
READOUT_VALUE: low polyreactivity

SEQUENCE_CONTENT: QDQLVESGGGLVQAGVSLRLSCPASGNIFNGKAMGWYRQAPGKERELVAAISSGGGSTYYADSVKGRFTISRDNAMNTVYLQMNSLKPEDTAVYYCAASRVRYSYGYPYYYWGQGTQVTVSS
READOUT_VALUE: high polyreactivity

SEQUENCE_CONTENT: QVQLVESGGGLVQAGGSLRLSCAASGFIDAYTMGWYRQAPGKERELVAAITWSGGRTYYADSVKGRFTISRDNAKNTVYLQMNSLKPEDTAVYYCAATVSRGFYSWWYDYWGQGTQVTVSS
READOUT_VALUE: low polyreactivity

SEQUENCE_CONTENT: QVHLVESGVGLVQAGGTLRLSCAASGRTFRVYALVWYRQAPGKERELVAAITWNGGSTYYADSVKGRFTISRDNAKNNVYLQMNRLKPEDTAVYYSAAARYAYNIWSGAYDYWGQGTQVTVSS
READOUT_VALUE: high polyreactivity

SEQUENCE_CONTENT: QVQLVESGGGLVQAGGSLRLSCAASGSIFGKNAMGWYRQAPGKERELVAAITSTGTSTYYADSVKGRFTISRDTAKNTVYLQMNSLKAEDTAVYYCADETARWDYGYWGQGTQVTVSS
READOUT_VALUE: low polyreactivity

SEQUENCE_CONTENT: QVQLVESGGGLVQAGGSLRLSCAASGRIFDGYAMGWYIQAPGKERELVAAISSRGGRTYYADSVKGRFTISRDNAKNTVYLQMNSLKPEDSAVYYCAADDPYGECDYWGQGTQVTVSS
READOUT_VALUE: low polyreactivity

SEQUENCE_CONTENT: QVQLVESGGGLVQAGGSLRLSCAASGRTLARNAMGWYRQAPGKERELVASINGRTTRTYYADSVKGRFTISRDNAKNTVYLQMNSLKPEDPAVYYCAARATNVYSKMDYWGQGTQVTVSS
READOUT_VALUE: high polyreactivity

SEQUENCE_CONTENT: QVQLVESGGGLVQAGGSLRLSCAASGSIFGTYAMGWYRQAPGKERELVAAITGSGGRTYYADSVKGRFTISRDNAKNTVYLQLNSLKPEDTAVYYCNKVVYVRSYPPRYDYWGQGTQVTVSS
READOUT_VALUE: high polyreactivity
